Molecular target: HLA-B*27:05
Test: IEDB peptide-MHC binding, purified MHC/direct/fluorescence; filed as Kd, often an IC50 or EC50 that approximates it; bounds were set here for any values at or beyond the usual limits of such assays
Conditions: source organism: Influenza A virus (A/chicken/Vietnam/5/2003(H5N1))
test readout: Kd

monomer sequence: QTYDWTLNR
target or system: HLA-B*27:05
reported value: ≥ 20 µM

* * *

Molecular target: HLA-B*51:01
Assay: IEDB peptide-MHC binding, purified MHC/competitive/fluorescence; filed as Kd, often an IC50 or EC50 that approximates it; bounds were set here for any values at or beyond the usual limits of such assays
Details: source organism: Salmonella enterica subsp. enterica serovar Typhi
pKd: −log10 of the molar value.

monomer sequence: MTMLTRWKI
target or system: HLA-B*51:01
pKd: ≤ 4.70

The values you see were collected from the Immune Epitope Database (IEDB).
